System: chamomile
Method Description: Test D postemergence
Type: in vivo, Matricaria inodora
Condition Description: Tripleurospermum inodorum, post-emergence, 125 g ai/ha, scale 0 to 100 (0 no effect, 100 complete control), read-out: Plant response rating, Chamomile
Source text: […]
Recorded pest or weed control at 125 g/ha, one value per entry.
Measured Property: pest or weed control at 125 g/ha (%)

>  <Compound>
N#Cc1cccc(Oc2ncc(Cl)cn2)c1-n1cc(C(F)(F)F)cn1

>  <Units>
%

>  <Reported>
35

$$$$
>  <Compound>
FC(F)(F)c1cn(-c2ccccc2Oc2ncc(Cl)cn2)nn1

>  <Units>
%

>  <Reported>
15

$$$$
>  <Compound>
N#Cc1cccc(Oc2ncc(Br)cn2)c1-n1cc(C(F)(F)F)cn1

>  <Units>
%

>  <Reported>
10

$$$$
>  <Compound>
Fc1cccc(Oc2ncc(Cl)cn2)c1-n1cc(Br)cn1

>  <Units>
%

>  <Reported>
5

$$$$
